Experiment: clinical
Conditions: human, in vivo, po, 1600 mg
observable: Tmax (h)
Give the value, in units of h, as a plain number.

Query: So what's the measured Tmax for this one? `Cn1c(=O)n([C@@H]2CCC(=O)NC2=O)c2cccc(C#CCOC3CCN(C[C@H]4CC[C@H](n5cc(NC(=O)c6cnn7ccc(N8C[C@H]9C[C@@H]8CO9)nc67)c(C(F)F)n5)CC4)CC3)c21`
Reply: 24

* * *

Assay: Phase 1 MAD plasma PK in healthy volunteers
Assay type: in vivo, human
Details: human, plasma, oral; 50 mg QD, Day 14, geometric mean (% CV); read-out: AUC24
observable: AUC

Query: AUC; subject: Cn1c(=O)n([C@@H]2CCC(=O)NC2=O)c2cccc(C#CCOC3CCN(C[C@H]4CC[C@H](n5cc(NC(=O)c6cnn7ccc(N8C[C@H]9C[C@@H]8CO9)nc67)c(C(F)F)n5)CC4)CC3)c21 [Compound A]
Reply: 224 ng·h/mL
